The measured values listed here are drawn from ChEMBL document CHEMBL5352470.

System: MCF7
Experiment: Antiproliferative activity against human MCF7 cells assessed as inhibition of cell growth measured for 48 hrs by MTT assay
Format: functional, cell-based
Conditions: MCF7, 48 h
ASSAY_ENDPOINT: pIC50
Scale note: pIC50 = -log10(concentration in M).

Asked: Return reported pIC50; argument: `COc1cc(C(=O)c2ccn(-c3ncnc4[nH]ccc34)c2)cc(OC)c1OC`
Given back: 7.42

---

Assay: Toxicity in human T cells derived from human PBMC assessed as viable cells at 0.1 uM measured for 48 hrs by annexin V-FITC and PI staining based flow cytometry analysis (reference value: 77.5 to 79.5 %)
Type: cell-based, T-cell
Details: read-out: Activity
ASSAY_ENDPOINT: viability at 48 h, 0.1 µM (%)
Hi! Could you send only the number? It should be in %, unit omitted.

Asked: Return reported viability at 48 h, 0.1 µM; argument: `COc1cc(C(=O)c2ccn(-c3ncnc4[nH]ccc34)c2)cc(OC)c1OC`
Given back: 75.4
